Target: T1, IL-10R1-Fc (UniProt Q13651 22-235, limits assumed)
T1 sequence (looked up): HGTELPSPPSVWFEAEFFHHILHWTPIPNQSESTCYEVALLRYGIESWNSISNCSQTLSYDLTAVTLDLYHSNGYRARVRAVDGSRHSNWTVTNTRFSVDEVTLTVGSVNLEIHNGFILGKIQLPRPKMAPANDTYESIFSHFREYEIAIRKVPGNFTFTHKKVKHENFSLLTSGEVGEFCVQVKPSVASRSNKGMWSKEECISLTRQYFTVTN
Assay: ELISA, IL-10R1-Fc coated
So I've got a bunch of binders here, and I need their Binding recovery (>60%) values.

// query Please report the recorded Binding recovery (>60%) for IL-10 Lys117Cys-R4-7 (ligand, human, UniProt P22301 19-178, looked up, R4-7 on Cys 117, mature) SPGQGTQSENSCTHFPGNLPNMLRDLRDAFSRVKTFFQMKDQLDNLLLKESLLEDFKGYLGCQALSEMIQFYLEEVMPQAENQDPDIKAHVNSLGENLKTLRLRLRRCHRFLPCENCSKAVEQVKNAFNKLQEKGIYKAMSEFDIFINYIEAYMTMKIRN .
// result 117%

// query Same read-out for IL-10 Asp44Cys-R4-11 (ligand, human, UniProt P22301 19-178, looked up, R4-11 on Cys 44, mature) SPGQGTQSENSCTHFPGNLPNMLRDLRDAFSRVKTFFQMKDQLCNLLLKESLLEDFKGYLGCQALSEMIQFYLEEVMPQAENQDPDIKAHVNSLGENLKTLRLRLRRCHRFLPCENKSKAVEQVKNAFNKLQEKGIYKAMSEFDIFINYIEAYMTMKIRN ?
// result 92.1%

// query Then IL-10 Leu65Cys-R4-6 (ligand, human, UniProt P22301 19-178, looked up, R4-6 on Cys 65, mature) SPGQGTQSENSCTHFPGNLPNMLRDLRDAFSRVKTFFQMKDQLDNLLLKESLLEDFKGYLGCQACSEMIQFYLEEVMPQAENQDPDIKAHVNSLGENLKTLRLRLRRCHRFLPCENKSKAVEQVKNAFNKLQEKGIYKAMSEFDIFINYIEAYMTMKIRN ?
// result 92.3%
